B1: KCNG1 (parent)
chain: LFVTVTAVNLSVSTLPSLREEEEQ

Variants of: B1
method: protein stability index of a GFP-peptide fusion (GPS, HEK-293T) (PSI 1-6); higher = more stable;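 also: lentivirally expressed fusions sorted by FACS into six bins by GFP to DsRed ratio, PSI derived from sequencing read proportions per bin multiplied by bin number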
condition: c terminus: a fixed tail appended
Binary classification by protein stability index, with 2 as an inclusive lower bound for yes; all other cases are no.

| alteration | category |
| --- | --- |
| Q24L | no |

Is protein stability index at least 2? Consider `V12D`
no

Is protein stability index at least 2? Consider `E21H`
yes

Is protein stability index at least 2? Consider `V5N`
yes

Is protein stability index at least 2? Consider `L1R`
yes

Is protein stability index at least 2? Consider `E23K`
yes
